System: Onchocerca ochengi adult male worms
Assay: O. ochengi adult male worm motility assay, primary and secondary screens
Type: cell-based
Conditions: selectivity index = IC50 on LLC-MK2 cells (CC50) / IC50 on parasites
metric: SI Adult Male Worm
Respond using a number only.

Please review the following examples before continuing.
[
  {
    "molecule": "CC[C@H]1CC2CN3CCc4c([nH]c5ccc(OC)cc45)[C@](C(=O)OC)(C2)[C@H]13 (stereo in doubt)",
    "SI Adult Male Worm": 3.30
  },
  {
    "molecule": "C/C=C1/CN(C)C2Cc3c([nH]c4ccccc34)[C@@H](c3cc4[nH]c5c(c4cc3OC)CCN3CC4CC([C@H](C)O)C3[C@@]5(C(=O)OC)C4)CC1C2C(=O)OC (stereo partly drawn)",
    "SI Adult Male Worm": 8.69
  }
]

Lab note: next molecule to report on.
Q: Param item = C/C=C1\CN(C)C2Cc3c([nH]c4ccccc34)[C@@H](c3cc4[nH]c5c(c4cc3OC)CCN3CC4C[C@H](CC)C3[C@@]5(C(=O)OC)C4)CC1C2C(=O)OC (stereo partly drawn) ; retrieve measured SI Adult Male Worm.
A: 6.74

###

Tested on: Onchocerca ochengi adult male worms
Assay: O. ochengi adult male worm motility assay, primary and secondary screens
Type: cell-based
Details: selectivity index = IC50 on LLC-MK2 cells (CC50) / IC50 on parasites
Description: The isolation of O. ochengi adult worms was performed as described previously by Cho-Ngwa et al.. Briefly, fresh pieces of umbilical cattle skin with palpable nodules bought from butchery in Douala, Cameroon were washed, drained and sterilized with 70% ethanol. […] Adult male worm motility was evaluated with the aid of an inverted microscope. […]
List of SI Adult Male Worm values.
Respond using a number only.

Please review the following examples before continuing.
[
  {
    "molecule": "COC(=O)[C@@]12C[C@@H]3C[C@H]([C@H](C)O)[C@@H]1N(CCc1c2[nH]c2ccc(OC)cc12)C3",
    "SI Adult Male Worm": 3.71
  },
  {
    "molecule": "COc1ccc2[nH]c3c(c2c1)CCN1CC2CC3C1C([C@H](C)O)C2 (stereo partly drawn)",
    "SI Adult Male Worm": 3.30
  }
]

Lab note: next molecule to report on.
Q: Param item = "CC[C@H]1C[C@@H]2CN3CCc4c([nH]c5ccccc45)[C@](C(=O)OC)(C2)[C@H]13" ; retrieve measured SI Adult Male Worm.
A: 3.45

###

Test system: Onchocerca ochengi microfilariae
Assay: O. ochengi microfilariae (Mf) motility assay, primary and secondary screens
Type: cell-based
Conditions: Onchocerca ochengi, read-out: IC50 Mf
Protocol: Briefly, Mf were prepared using the method described by Cho-Ngwa et al., with slight modifications. A few skin snips were obtained from different locations and incubated in aliquots of culture medium for 15 min, after which the emergent Mf were qualified and quantified using an inverted microscope and standard atlases. […] This was monitored for viability and sterility for 24 h before addition of test and control compounds. […]
List of pIC50 values.
Entry type: numeric. Quantity: pIC50, the -log10 of concentration in molar units.

[
  {
    "molecule": "C/C=C1/CN(C)C2Cc3c([nH]c4ccccc34)[C@@H](c3cc4[nH]c5c(c4cc3OC)CCN3CC4CC([C@H](C)O)C3[C@@]5(C(=O)OC)C4)CC1C2C(=O)OC (some centres unmarked)",
    "pIC50": 5.60
  }
]

Q: Param item = COc1ccc2[nH]c3c(c2c1)CCN1CC2CC3C1C([C@H](C)O)C2 (some centres unmarked) ; retrieve measured pIC50.
A: 5.33

###

System: Onchocerca ochengi adult male worms
Assay: O. ochengi adult male worm motility assay, primary and secondary screens
Format: cell-based
Details: Onchocerca ochengi, 24 h, read-out: % Adult Male Worm Motility Reduction after 24 h
metric: inhibition at 30 µM (%)
Kindly answer with a numeric value in %, unit omitted.

Q: Param item = CC[C@H]1C[C@@H]2C[C@H]3c4[nH]c5cc(OC)ccc5c4CC[N@@](C2)[C@@H]13 [Compound 5, tabernanthine] ; retrieve measured inhibition at 30 µM.
A: 0

Q: Param item = CC[C@H]1C[C@@H]2CN3CCc4c([nH]c5ccccc45)[C@](C(=O)OC)(C2)[C@H]13 [Compound 4, coronaridine] ; retrieve measured inhibition at 30 µM.
A: 100

Q: Param item = CC[C@H]1CC2CN3CCc4c([nH]c5ccc(OC)cc45)[C@](C(=O)OC)(C2)[C@H]13 (stereo in doubt) [Compound 2, voacangine] ; retrieve measured inhibition at 30 µM.
A: 100

Q: Param item = C/C=C1/CN(C)C2Cc3c([nH]c4ccccc34)[C@@H](c3cc4[nH]c5c(c4cc3OC)CCN3CC4CC([C@H](C)O)C3[C@@]5(C(=O)OC)C4)CC1C2C(=O)OC (stereo partly shown) [Compound 8, voacorine] ; retrieve measured inhibition at 30 µM.
A: 100

###

Tested on: Onchocerca ochengi adult male worms
Test: O. ochengi adult male worm motility assay, primary and secondary screens
Type: cell-based
Conditions: Onchocerca ochengi, 24 h, read-out: % Adult Male Worm Motility Reduction after 24 h
metric: inhibition at 30 µM (%)
Kindly answer with a numeric value in %, unit omitted.

[
  {
    "molecule": "C/C=C1\\CN(C)C2Cc3c([nH]c4ccccc34)[C@@H](c3cc4[nH]c5c(c4cc3OC)CCN3CC4C[C@H](CC)C3[C@@]5(C(=O)OC)C4)CC1C2C(=O)OC (stereo partly drawn)",
    "inhibition at 30 µM [%]": 100
  },
  {
    "molecule": "COc1ccc2[nH]c3c(c2c1)CCN1CC2CC3C1C([C@H](C)O)C2 (stereo partly drawn)",
    "inhibition at 30 µM [%]": 100
  }
]

Lab note: next molecule to report on.
Q: Query inhibition at 30 µM on Onchocerca ochengi adult male worms for "COC(=O)[C@@]12C[C@@H]3C[C@H]([C@H](C)O)[C@@H]1N(CCc1c2[nH]c2ccc(OC)cc12)C3"
A: 100

###

Tested on: Onchocerca ochengi microfilariae
Assay: O. ochengi microfilariae (Mf) motility assay, primary and secondary screens
Assay type: cell-based
Settings: selectivity index = IC50 on LLC-MK2 cells (CC50) / IC50 on parasites
Mark NO for SI Mf values under 7, and YES for everything at or above.

A selection of reference data follows.
[
  {
    "molecule": "COc1ccc2[nH]c3c(c2c1)CCN1CC2CC3C1C([C@H](C)O)C2 (stereo partly drawn) [Compound 6, iboxygaine]",
    "assigned class": "NO"
  },
  {
    "molecule": "C/C=C1\\CN(C)C2Cc3c([nH]c4ccccc34)[C@@H](c3cc4[nH]c5c(c4cc3OC)CCN3CC4C[C@H](CC)C3[C@@]5(C(=O)OC)C4)CC1C2C(=O)OC (stereo partly drawn) [Compound 1, voacamine A]",
    "assigned class": "YES"
  },
  {
    "molecule": "CC[C@H]1CC2CN3CCc4c([nH]c5ccc(OC)cc45)[C@](C(=O)OC)(C2)[C@H]13 (stereo in doubt) [Compound 2, voacangine]",
    "assigned class": "NO"
  }
]

Q: Evaluate C/C=C1/CN(C)C2Cc3c([nH]c4ccccc34)[C@@H](c3cc4[nH]c5c(c4cc3OC)CCN3CC4CC([C@H](C)O)C3[C@@]5(C(=O)OC)C4)CC1C2C(=O)OC (stereo partly drawn) [Compound 8, voacorine] : SI Mf at minimum 7?
A: YES
